Collected IC50 values appear next to each entry.
Target: unphosphorylated c-FMS kinase (uFMS, Seq. ID no. 1) (Homo sapiens)
Sequence (P07333 538-972): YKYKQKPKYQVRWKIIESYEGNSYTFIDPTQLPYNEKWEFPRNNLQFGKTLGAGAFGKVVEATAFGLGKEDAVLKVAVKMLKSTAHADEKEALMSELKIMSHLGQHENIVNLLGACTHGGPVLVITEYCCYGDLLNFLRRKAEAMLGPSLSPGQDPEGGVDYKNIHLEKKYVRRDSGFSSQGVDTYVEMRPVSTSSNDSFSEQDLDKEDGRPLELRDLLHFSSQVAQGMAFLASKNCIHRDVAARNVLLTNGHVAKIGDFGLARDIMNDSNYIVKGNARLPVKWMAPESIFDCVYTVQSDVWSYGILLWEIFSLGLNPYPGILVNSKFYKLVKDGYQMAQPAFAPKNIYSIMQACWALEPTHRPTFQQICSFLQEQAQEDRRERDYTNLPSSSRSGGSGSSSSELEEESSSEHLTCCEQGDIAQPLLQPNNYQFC
Assay: biochemical
Details: uFMS, enzymatic assay, ATP 500 μM

Cc1nc(NC(=O)NC(=O)C(C)(C)C)ccc1Oc1ccnc(-c2ccc(C#N)nc2)c1: 10 to 100 nM
Cc1nc(NC(=O)NC(=O)C(C)(C)C(F)(F)F)ccc1Oc1ccnc(-c2cnn(C)c2)c1: < 10 nM
Cc1ccc(-c2cc(Oc3ccc(NC(=O)NC(=O)C(C)(C)C)nc3)ccn2)cn1: < 10 nM

// fetch IC50 given entry Cn1cc(-c2cc(Oc3ccc(NC(=O)NC(=O)CC4CC5CCC4C5)nc3)ccn2)cn1 (stereo not drawn)
< 10 nM

For the compound Cn1cc(-c2cc(Oc3ccc(NC(=O)NC(=O)C4(C(F)(F)F)CCC4)nc3)ccn2)cn1 , report IC50.
< 10 nM

Consider the compound Cn1cc(-c2cc(Oc3ccc(NC(=O)NC(=O)C(C)(C)C(F)(F)F)nc3)ccn2)cn1 and give its recorded IC50.
< 10 nM

For Cc1ncc(-c2cc(Oc3ccc(NC(=O)NC(=O)C4CCOCC4)nc3)ccn2)s1 , write its IC50.
10 to 100 nM

Please report the measured IC50 for CC(C)(C)C(=O)NC(=O)Nc1ccc(Oc2ccnc(-c3ccc(N)nc3)c2)cn1
< 10 nM

Return IC50 for the following compound: COC1(C(=O)NC(=O)Nc2ccc(Oc3ccnc(-c4cnc(C)s4)c3)cn2)CCCC1
< 10 nM

Give IC50 for the following compound: Cc1nc(NC(=O)NC(=O)C(C)(C)C)ccc1Oc1ccnc(-c2ccc(N3CCN(C)CC3)cc2)c1
< 10 nM

Quick one: give measured IC50 for CC(C)(C)C(=O)NC(=O)Nc1ccc(Oc2ccnc(-c3cnco3)c2)cn1
10 to 100 nM

Give the reported value of IC50 for this record: Cc1nc(NC(=O)NC(=O)C2(C(F)(F)F)CC2)ccc1Oc1ccnc(-c2cnn(C)c2)c1
< 10 nM

Hello, please tell me recorded IC50 for this one: Cc1cn(-c2cc(Oc3ccc(NC(=O)NC(=O)C(C)(C)C)nc3)ccn2)cn1
< 10 nM

Please indicate IC50 recorded for COC1(C(=O)NC(=O)Nc2ccc(Oc3ccnc(-c4ccnc(C)c4)c3)cn2)CCCC1
< 10 nM
